The origin of these recorded values is PubChem BioAssay AID1745844.

Tested on: rodent lifetime carcinogenesis bioassay, tumor incidence TD50
Experiment: carcinogenic potency in animals, long-term in vivo studies, CPDB compilation (AID 1745844)
Details: mouse; strain B6C3F1; females; by gavage; site: multiple organs + spleen; lesion: malignant lymphoma, undifferentiated type; dosed 103 weeks; study length 104 weeks
measured.property: TD50 (mg/kg/day)

[[record]]
mol = "c1ccc2occc2c1"
uom = "mg/kg/day"
endpoint_value = 322


---

Tested on: rodent lifetime carcinogenesis bioassay, tumor incidence TD50
Test: carcinogenic potency in animals, long-term in vivo studies, CPDB compilation (AID 1745844)
Settings: rat; strain Sprague-Dawley; males; in drinking water; site: liver; lesion: liver-cell carcinoma; dosed 104 weeks; study length 104 weeks
measured.property: TD50 (mg/kg/day)

[[record]]
mol = "CCCCN(CCCCO)N=O"
measured_on = "rodent lifetime carcinogenesis bioassay, tumor incidence TD50"
uom = "mg/kg/day"
endpoint_value = 271


---

Test system: rodent lifetime carcinogenesis bioassay, tumor incidence TD50
Assay: carcinogenic potency in animals, long-term in vivo studies, CPDB compilation (AID 1745844)
Conditions: rat; strain MRC; males; by gavage; site: lung; lesion: several types; types named in the paper; dosed 72 weeks; study length 80 weeks
measured.property: TD50

[[record]]
mol = "CC(=O)CN(CC(C)=O)N=O"
endpoint_value = "1.1 mg/kg/day"


---

Test system: rodent lifetime carcinogenesis bioassay, tumor incidence TD50
Test: carcinogenic potency in animals, long-term in vivo studies, CPDB compilation (AID 1745844)
Conditions: mouse; strain B6C3F1; females; by gavage; site: lung; lesion: alveolar/bronchiolar adenoma; dosed 102 weeks; study length 103 weeks
measured.property: TD50 (mg/kg/day)

[[record]]
mol = "CC(C)=CCl"
measured_property = "TD50"
endpoint_value = 235


---

Test system: rodent lifetime carcinogenesis bioassay, tumor incidence TD50
Experiment: carcinogenic potency in animals, long-term in vivo studies, CPDB compilation (AID 1745844)
Details: rat; strain Fischer 344; females; in drinking water; site: thyroid follicle; lesion: several types; types named in the paper; dosed 104 weeks; study length 104 weeks
measured.property: TD50

[[record]]
mol = "C=CC(N)=O"
measured_property = "TD50"
endpoint_value = "19.1 mg/kg/day"


---

System: rodent lifetime carcinogenesis bioassay, tumor incidence TD50
Test: carcinogenic potency in animals, long-term in vivo studies, CPDB compilation (AID 1745844)
Conditions: rat; strain Fischer 344; males; in feed; site: ear canal; lesion: ceruminous carcinoma + squamous-cell carcinoma; dosed 74 weeks; study length 101 weeks
measured.property: TD50

[[record]]
mol = "O=[N+]([O-])c1ccc2c3c(cccc13)CC2"
endpoint_value = "7.88 mg/kg/day"


---

System: rodent lifetime carcinogenesis bioassay, tumor incidence TD50
Assay: carcinogenic potency in animals, long-term in vivo studies, CPDB compilation (AID 1745844)
Details: rat; strain Charles River CD1; females; in feed; site: kidney/pelvis; lesion: several types; types named in the paper; dosed 104 weeks; study length 104 weeks
measured.property: TD50

[[record]]
mol = "CCOP(=O)=O.CCOP(=O)=O.CCOP(=O)=O.[Al+3]"
measured_property = "TD50"
endpoint_value = "14600 mg/kg/day"


---

Tested on: rodent lifetime carcinogenesis bioassay, tumor incidence TD50
Assay: carcinogenic potency in animals, long-term in vivo studies, CPDB compilation (AID 1745844)
Conditions: rat; strain Sprague-Dawley Spartan; males; in feed; site: adrenal gland; lesion: cortical adenoma; dosed 103 weeks; study length 103 weeks
measured.property: TD50 (mg/kg/day)

[[record]]
mol = "Clc1cc2c(cc1Cl)Oc1cc(Cl)c(Cl)cc1O2"
endpoint_value = 0.000217


---

System: rodent lifetime carcinogenesis bioassay, tumor incidence TD50
Experiment: carcinogenic potency in animals, long-term in vivo studies, CPDB compilation (AID 1745844)
Conditions: rat; strain Fischer 344; males; in drinking water; site: skin; lesion: squamous-cell papilloma; dosed 97 weeks; study length 97 weeks
measured.property: TD50

[[record]]
mol = "COc1cc(-c2ccc(N=Nc3c(S(=O)(=O)O)cc4cc(S(=O)(=O)O)cc(N)c4c3O)c(OC)c2)ccc1N=Nc1c(S(=O)(=O)O)cc2cc(S(=O)(=O)O)cc(N)c2c1O"
endpoint_value = "92.8 mg/kg/day"


---

Test system: rodent lifetime carcinogenesis bioassay, tumor incidence TD50
Assay: carcinogenic potency in animals, long-term in vivo studies, CPDB compilation (AID 1745844)
Settings: mouse; strain B6C3F1; females; oral dosing; site: any site (literature study); lesion: several types; types named in the paper; dosed 69 weeks; study length 69 weeks
measured.property: TD50 (mg/kg/day)

[[record]]
compound = "ClC1(Cl)C2(Cl)C3(Cl)C4(Cl)C(Cl)(Cl)C5(Cl)C3(Cl)C1(Cl)C5(Cl)C24Cl (stereo unspecified)"
uom = "mg/kg/day"
endpoint_value = 1.6


---

Test system: rodent lifetime carcinogenesis bioassay, tumor incidence TD50
Experiment: carcinogenic potency in animals, long-term in vivo studies, CPDB compilation (AID 1745844)
Conditions: mouse; strain B6C3F1; males; by gavage; site: liver; lesion: hemangiosarcoma; dosed 104 weeks; study length 104 weeks
measured.property: TD50

[[record]]
compound = "COC1COC(OC2COC(OC3COC(OC4COC(OC)C(OS(=O)(=O)O)C4OS(=O)(=O)O)C(OC4OC(C(=O)O)C(OC)C(OS(=O)(=O)O)C4OS(=O)(=O)O)C3OS(=O)(=O)O)C(OS(=O)(=O)O)C2OS(=O)(=O)O)C(OS(=O)(=O)O)C1OS(=O)(=O)O (configuration not stated)"
measured_on = "rodent lifetime carcinogenesis bioassay, tumor incidence TD50"
endpoint_value = "1090 mg/kg/day"

[[record]]
compound = "C=C1C/C(=C/C)C(=O)O[C@@H]2CCN3CC=C(COC(=O)[C@@]1(O)CO)[C@H]23"
measured_on = "rodent lifetime carcinogenesis bioassay, tumor incidence TD50"
endpoint_value = "1.96 mg/kg/day"


---

System: rodent lifetime carcinogenesis bioassay, tumor incidence TD50
Assay: carcinogenic potency in animals, long-term in vivo studies, CPDB compilation (AID 1745844)
Conditions: rat; strain Fischer 344; males; inhaled; site: liver + multiple organs + spleen; lesion: mononuclear-cell leukemia; dosed 103 weeks; study length 104 weeks
measured.property: TD50

[[record]]
mol = "ClC(Cl)=C(Cl)Cl"
measured_property = "TD50"
endpoint_value = "101 mg/kg/day"


---

Test system: rodent lifetime carcinogenesis bioassay, tumor incidence TD50
Assay: carcinogenic potency in animals, long-term in vivo studies, CPDB compilation (AID 1745844)
Conditions: mouse; strain Swiss albino; females; in feed; site: duodenum; lesion: adenocarcinoma; dosed 152 weeks; study length 152 weeks
measured.property: TD50 (mg/kg/day)

[[record]]
mol = "COc1cc(CNC(=O)CCCC/C=C/C(C)C)ccc1O"
endpoint_value = 2310


---

Tested on: rodent lifetime carcinogenesis bioassay, tumor incidence TD50
Experiment: carcinogenic potency in animals, long-term in vivo studies, CPDB compilation (AID 1745844)
Details: rat; strain Sprague-Dawley; females; by gavage; site: forestomach; lesion: squamous-cell carcinoma; dosed 52 weeks; study length 156 weeks
measured.property: TD50

[[record]]
molecule = "c1ccc(C2CO2)cc1 (stereo unspecified)"
endpoint_value = "102 mg/kg/day"


---

Test system: rodent lifetime carcinogenesis bioassay, tumor incidence TD50
Assay: carcinogenic potency in animals, long-term in vivo studies, CPDB compilation (AID 1745844)
Settings: mouse; strain B6C3F1; females; in feed; site: ovary; lesion: sex-cord stromal tumor, benign, bilateral + sex-cord stromal tumor, benign; dosed 105 weeks; study length 105 weeks
measured.property: TD50

[[record]]
mol = "O=C1OC(c2ccc(O)cc2)(c2ccc(O)cc2)c2ccccc21"
endpoint_value = "1900 mg/kg/day"


---

Tested on: rodent lifetime carcinogenesis bioassay, tumor incidence TD50
Assay: carcinogenic potency in animals, long-term in vivo studies, CPDB compilation (AID 1745844)
Conditions: rat; strain Sprague-Dawley; males; by gavage; site: all sites; lesion: lymphoma and leukemia, combined; dosed 104 weeks; study length 123 weeks
measured.property: TD50

[[record]]
mol = "Cc1cccc(C)c1"
measured_on = "rodent lifetime carcinogenesis bioassay, tumor incidence TD50"
endpoint_value = "8150 mg/kg/day"


---

System: rodent lifetime carcinogenesis bioassay, tumor incidence TD50
Test: carcinogenic potency in animals, long-term in vivo studies, CPDB compilation (AID 1745844)
Details: mouse; strain Ha/ICR; females; i.p.; site: abdomen; lesion: sarcoma; dosed 60 weeks; study length 60 weeks
measured.property: TD50

[[record]]
mol = "ClCOCCl"
measured_property = "TD50"
endpoint_value = "0.182 mg/kg/day"


---

Tested on: rodent lifetime carcinogenesis bioassay, tumor incidence TD50
Assay: carcinogenic potency in animals, long-term in vivo studies, CPDB compilation (AID 1745844)
Conditions: mouse; strain B6C3F1; females; inhaled; site: lung; lesion: one or several types; types not named; dosed 78 weeks; study length 154 weeks
measured.property: TD50

[[record]]
mol = "ClC=C(Cl)Cl"
measured_property = "TD50"
endpoint_value = "6320 mg/kg/day"

